Target: Short transient receptor potential channel 4 (Mus musculus)
Assay: blockers of DAMGO-evoked TRPC4 calcium flux – cell-based, second round, Fluo4, HEK293 TRPC4beta/mu-opioid, 1 µM, confirmation (AID 2637)
Conditions: at 1 µM
Activity calls are given as the source filed them.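 How the source made its calls: active means calcium signal ratio cut to more than 3 SD under the fully stimulated control mean yet still positive, in both repeats and the primary screen; inactive means the rest.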
Outcome codes: active, inactive

- Molecule: "C=CCc1ccccc1OCC(CN1CCCCC1)OC(C)=O (stereo not drawn)"
  Group Label: "active"
- Molecule: "CN(C)C(CNc1ccc(C(F)(F)F)cn1)c1ccccc1 (stereo not drawn)"
  Group Label: "inactive"
- Molecule: "CCN1CCCC1CNS(=O)(=O)c1c(C)cc(C)cc1C (stereo not drawn)"
  Group Label: "inactive"
